protocolText: Cytotoxicity assay, HEK293T
Format: cell-based
runParameters: human, HEK293T cells (embryonic kidney), maximum concentration 100 μM

compound	IC50 at 48 h
CC(C)CC1NC(=O)C2CCCN2C(=O)C(C(O)C(C)C)NC(=O)CNC(=O)C(C(C)O)NC(=O)C2NC(=O)C(NC(=O)/C=C/c3ccccc3C(O)C(C)O)C(C)OC(=O)C(CC(N)=O)NC(=O)C(NC(=O)C(O)NC1=O)C(O)c1ccc(O)c(c1)Oc1ccc2cc1 (stereo not shown) [Chemical Formula 1-1]	> 100 µM

====

protocolText: Cytotoxicity assay, B16F10
Type: cell-based
runParameters: mouse, B16F10 cells (malignant melanoma); B16F10, 48 hours, maximum concentration 100 μM

compound	IC50 at 48 h
CC(C)CC1NC(=O)C2CCCN2C(=O)C(C(O)C(C)C)NC(=O)CNC(=O)C(C(C)O)NC(=O)C2NC(=O)C(NC(=O)/C=C/c3ccccc3C(O)C(C)O)C(C)OC(=O)C(CC(N)=O)NC(=O)C(NC(=O)C(O)NC1=O)C(O)c1ccc(O)c(c1)Oc1ccc2cc1 (stereo not shown)	> 100 µM

====

protocolText: Cytotoxicity assay, U87MG
Format: cell-based
runParameters: human, U87MG cells (brain cancer), maximum concentration 100 μM
Text: […]

molecule	IC50 at 48 h
CC(C)CC1NC(=O)C2CCCN2C(=O)C(C(O)C(C)C)NC(=O)CNC(=O)C(C(C)O)NC(=O)C2NC(=O)C(NC(=O)/C=C/c3ccccc3C(O)C(C)O)C(C)OC(=O)C(CC(N)=O)NC(=O)C(NC(=O)C(O)NC1=O)C(O)c1ccc(O)c(c1)Oc1ccc2cc1 (stereo not shown)	> 100 µM

====

protocolText: Cytotoxicity assay, U373MG
Assay type: cell-based
runParameters: human, U373MG cells (glioblastoma), maximum concentration 100 μM
readoutKind: IC50 at 48 h (µM)

compound	readoutKind	quantitativeResult
CC(C)CC1NC(=O)C2CCCN2C(=O)C(C(O)C(C)C)NC(=O)CNC(=O)C(C(C)O)NC(=O)C2NC(=O)C(NC(=O)/C=C/c3ccccc3C(O)C(C)O)C(C)OC(=O)C(CC(N)=O)NC(=O)C(NC(=O)C(O)NC1=O)C(O)c1ccc(O)c(c1)Oc1ccc2cc1 (stereo not shown)	IC50 at 48 h	89.5

====

protocolText: Cytotoxicity assay, MEF
Type: cell-based
runParameters: mouse, MEF cells (embryonic fibroblasts), maximum concentration 100 μM
readoutKind: IC50 at 48 h

compound	result
CC(C)CC1NC(=O)C2CCCN2C(=O)C(C(O)C(C)C)NC(=O)CNC(=O)C(C(C)O)NC(=O)C2NC(=O)C(NC(=O)/C=C/c3ccccc3C(O)C(C)O)C(C)OC(=O)C(CC(N)=O)NC(=O)C(NC(=O)C(O)NC1=O)C(O)c1ccc(O)c(c1)Oc1ccc2cc1 (stereo not shown) [Chemical Formula 1-1]	> 100 µM

====

protocolText: Cytotoxicity assay, MCF7
Type: cell-based
runParameters: human, MCF7 cells (breast cancer); MCF7, 48 hours, maximum concentration 100 μM

molecule	IC50 at 48 h
CC(C)CC1NC(=O)C2CCCN2C(=O)C(C(O)C(C)C)NC(=O)CNC(=O)C(C(C)O)NC(=O)C2NC(=O)C(NC(=O)/C=C/c3ccccc3C(O)C(C)O)C(C)OC(=O)C(CC(N)=O)NC(=O)C(NC(=O)C(O)NC1=O)C(O)c1ccc(O)c(c1)Oc1ccc2cc1 (stereo not shown)	> 100 µM

====

protocolText: Cytotoxicity assay, 4T1
Type: cell-based
runParameters: mouse, 4T1 cells (breast cancer); 4T1, 48 hours, maximum concentration 100 μM

compound	IC50 at 48 h
CC(C)CC1NC(=O)C2CCCN2C(=O)C(C(O)C(C)C)NC(=O)CNC(=O)C(C(C)O)NC(=O)C2NC(=O)C(NC(=O)/C=C/c3ccccc3C(O)C(C)O)C(C)OC(=O)C(CC(N)=O)NC(=O)C(NC(=O)C(O)NC1=O)C(O)c1ccc(O)c(c1)Oc1ccc2cc1 (stereo not shown)	> 100 µM
